assay: chemical genetic growth profiling, strain panel (AID 1159580);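 note: tested at 20 µM; growth read once vehicle control cultures reached saturation at 30 °C; 1 = growth at the plate median or of vehicle wells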; conditions: S. cerevisiae deletion strains, growth OD, locus YNL224C, strain SQS1, stronger effect = lower value
The campaign covered roughly 5,500 compounds. About 2,000 (36%) were called active. Roughly 18% stayed inconclusive and do not appear here. Some of the results follow.
Note to self: normalized growth under 1 means 1, ties and anything higher get -1.

>  <MOLECULE>
CC(C)C(=O)Nc1ccc([N+](=O)[O-])c(C(F)(F)F)c1

>  <CATEGORY_LABEL>
1

$$$$

# check: normalized growth < 1 for COC(=O)C1C2CC3c4[nH]c5cc(OC)ccc5c4CCN3CC2CC(OC(=O)c2cc(OC)c(OC)c(OC)c2)C1OC (stereo not given)
-1

How about C[Se]C[C@H](N)C(=O)O ?
1

---

assay: chemical genetic growth profiling, strain panel (AID 1159580); conditions: S. cerevisiae deletion strains, growth OD, locus YNL071W, strain lat1, stronger effect = lower value
About 2,000 (36%) of roughly 5,500 compounds were called active. Not shown: some 18% with an inconclusive outcome. The list shows a part of the results.
READOUT_KIND: normalized growth
Please reply with the number alone, leaving off any unit.

A selection of reference data follows.
>  <COMPOUND>
C=CC(N)CCC(=O)O (stereo not given)

>  <normalized growth>
0.986

$$$$
>  <COMPOUND>
O=c1cc[nH]c(=S)[nH]1

>  <normalized growth>
1.02

$$$$
>  <COMPOUND>
CCCCN1CCCCC1C(=O)Nc1c(C)cccc1C (stereo not given)

>  <normalized growth>
0.984

$$$$

Look at this compound and give its reported normalized growth. O=C(Cn1ccnc1[N+](=O)[O-])NCCO
1

How about COc1cc(OC)c2c(=O)c(-c3ccccc3)coc2c1 ?
0.807

How about CC(C)(Oc1ccc(C2CC2(Cl)Cl)cc1)C(=O)O (stereo not given) ?
0.998

How about CC[C@H](C)C(=O)O[C@H]1CCC=C2C=C[C@H](C)C(CCC3C[C@@H](O)CC(=O)O3)[C@H]21 (stereo not given in full) ?
1

How about COC(=O)[C@@H]1OC(=O)[C@H]2O[C@@]23[C@@]1(C)CCC1[C@@]2(C)CCC(=O)C(C)(C)C2C[C@@H](OC(C)=O)[C@]13C (stereo not given in full) ?
0.976

How about CC(C)[C@@H]1CC[C@@H](C)C[C@H]1O ?
0.979

---

assay: chemical genetic growth profiling, strain panel (AID 1159580); settings: S. cerevisiae deletion strains, growth OD, locus YPR163C, strain tif3, stronger effect = lower value
Hit rate of the full screen: of about 5,500 compounds, about 2,000 (36%) were called active. About 18% were inconclusive and are not listed. The list shows a part of the results.
Each entry below carries its reported normalized growth.
Please reply with the number alone, leaving off any unit.

A selection of reference data follows.
>  <COMPOUND>
CCN(CC)C(=O)c1cccc(C)c1

>  <normalized growth>
0.996

$$$$
>  <COMPOUND>
COc1ccc2c(c1)O[C@H]1c3ccc(OC)cc3OC[C@@H]21

>  <normalized growth>
0.677

$$$$

Look at this compound and give its reported normalized growth. C[C@@H]1C(=O)OC2[C@H](O)C34[C@@H]5OC(=O)[C@@]3(O[C@@H]3OC(=O)[C@H](O)[C@@]34[C@H](C(C)(C)C)[C@H]5O)[C@]21O (stereo partly specified)
1.02

How about COc1ccc2c(c1)CCC(c1ccccc1)=C2c1ccc(OCCN2CCCC2)cc1 ?
0.0746

How about CC(C)C(C)/C=C/C(C)[C@H]1CCC2C3=CCC4CC(=O)CC[C@]4(C)C3CC[C@@]21C (stereo partly specified) ?
1.01

---

assay: chemical genetic growth profiling, strain panel (AID 1159580);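 note: tested at 20 µM; growth read once vehicle control cultures reached saturation at 30 °C; 1 = growth at the plate median or of vehicle wells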; conditions: S. cerevisiae deletion strains, growth OD, locus YMR205C, strain PFK2, stronger effect = lower value
In all, about 5,500 compounds went through this assay and about 2,000 (36%) were called active. Another 18% or so got no clear call; they are omitted. The list shows a part of the results.
Each entry below carries its reported normalized growth.
Please reply with the number alone, leaving off any unit.

A selection of reference data follows.
>  <COMPOUND>
C[C@H]1COC2=C1C(=O)C(=O)c1c2ccc2c1CCCC2(C)C

>  <normalized growth>
0.531

$$$$
>  <COMPOUND>
CCOC(=O)[C@H](CCc1ccccc1)N[C@@H](C)C(=O)N1[C@H](C(=O)O)C[C@@H]2CCC[C@@H]21

>  <normalized growth>
0.981

$$$$
>  <COMPOUND>
COc1cc([C@@H]2c3cc4c(c(O)c3C[C@H]3COC(=O)[C@@H]32)OCO4)cc(OC)c1OC

>  <normalized growth>
0.982

$$$$
>  <COMPOUND>
CCCCNc1ccc(C(=O)OCCN(C)C)cc1

>  <normalized growth>
1.02

$$$$

Look at this compound and give its reported normalized growth. O=C1NC(=O)C(=O)C(=O)N1
1

How about COc1c2ccoc2c(OC)c2oc(=O)ccc12 ?
0.913

How about OCCOCCN1CCN(C2=Nc3ccccc3Sc3ccccc32)CC1 ?
0.994

How about Oc1ccc(Cl)cc1 ?
1.03

How about C=C1C(=O)O[C@@H]2C3O[C@]3(C)CC/C=C(\C)CC[C@@H]12 (stereo partly drawn) ?
0.938

How about Cc1cccc(C)c1NC1=NCCCS1 ?
1.01

How about CC(C)NC[C@H](O)COc1cccc2ccccc12 ?
0.971

How about CC(C)(Oc1ccc(C2CC2(Cl)Cl)cc1)C(=O)O (stereo not drawn) ?
0.973

How about CCOC(=O)c1ccc(O)cc1 ?
1.02

How about CCN(CC)CCOC(=O)c1ccc(N)cc1 ?
1

How about Cc1cccc(Nc2ccccc2C(=O)O)c1C ?
0.919

How about CCCCOC(=O)c1ccccc1C(=O)OCCCC ?
0.949

How about CC(C)COCC(CN(Cc1ccccc1)c1ccccc1)N1CCCC1 (stereo not drawn) ?
1.02

How about CCCCOC(=O)c1ccc(N)cc1 ?
0.793

How about Cc1coc2c1C(=O)C(=O)c1c-2ccc2c1CCCC2(C)C ?
0.735

How about C[C@H]1CC[C@@H](C(C)(C)O)CC2=C1CC[C@@H]2C ?
0.896

---

assay: chemical genetic growth profiling, strain panel (AID 1159580);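 note: tested at 20 µM; growth read once vehicle control cultures reached saturation at 30 °C; 1 = growth at the plate median or of vehicle wells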; details: S. cerevisiae deletion strains, growth OD, locus YOR184W, strain ser1
Among all 5,500 compounds or so, about 2,000 (36%) were called active. Not shown: some 18% with an inconclusive outcome. No stated cut-off is given here; in the data, active means normalized growth mostly below about 0.91 (no sharp cut-off); inconclusive means no clear call, values can overlap the other calls; inactive means mostly above about 0.92. Some of the results follow.
A correct response names exactly one class from YES (active), NO (inactive)

Would you please look over these solved cases?
>  <ITEM_SMILES>
Cc1ccc(C)c(OCCCC(C)(C)C(=O)O)c1

>  <CATEGORY_LABEL>
YES

$$$$
>  <ITEM_SMILES>
CC(C)C(=O)Nc1ccc([N+](=O)[O-])c(C(F)(F)F)c1

>  <CATEGORY_LABEL>
NO

$$$$
>  <ITEM_SMILES>
Nc1nc2ncc(=O)[nH]c2c(=O)[nH]1

>  <CATEGORY_LABEL>
NO

$$$$
>  <ITEM_SMILES>
NC(N)=NS(=O)(=O)c1ccc(N)cc1

>  <CATEGORY_LABEL>
NO

$$$$
>  <ITEM_SMILES>
O=C1NC(=O)C(=O)C(=O)N1

>  <CATEGORY_LABEL>
NO

$$$$

Shifting focus to the compound that follows.
Which outcome was entered for the compound CC1(C)NC(=O)N(c2ccc([N+](=O)[O-])c(C(F)(F)F)c2)C1=O in this test?
NO

---

test: chemical genetic growth profiling, strain panel (AID 1159580);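 note: tested at 20 µM; growth read once vehicle control cultures reached saturation at 30 °C; 1 = growth at the plate median or of vehicle wells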; conditions: S. cerevisiae deletion strains, growth OD, locus YGR135W, strain pre9, stronger effect = lower value
Screen size: about 5,500 compounds; about 2,000 (36%) were called active. Another 18% or so got no clear call; they are omitted. Some of the results follow.
READOUT_KIND: normalized growth

A selection of reference data follows.
>  <COMPOUND>
Cc1cccc(Nc2ccccc2C(=O)O)c1C

>  <READOUT_KIND>
normalized growth

>  <TEST_RESULT>
0.858 (active)

$$$$
>  <COMPOUND>
Cc1cccc(C(=O)O)c1O

>  <READOUT_KIND>
normalized growth

>  <TEST_RESULT>
1.02 (inactive)

$$$$
>  <COMPOUND>
C[N+]1(C)C2CC(OC(=O)[C@@H](CO)c3ccccc3)CC1C1OC12 (some centres undefined)

>  <READOUT_KIND>
normalized growth

>  <TEST_RESULT>
1.06 (inactive)

$$$$
>  <COMPOUND>
C=C1CCC2C(CC2(C)C)C(=O)CCC1O (centres undefined)

>  <READOUT_KIND>
normalized growth

>  <TEST_RESULT>
1.08 (inactive)

$$$$

Look at this compound and give its reported normalized growth. CCC(C)(C)C(=O)O[C@H]1C[C@@H](C)C=C2C=C[C@H](C)[C@H](CC[C@@H]3C[C@@H](O)CC(=O)O3)[C@H]21
1.01 (inactive)

How about Nc1ccn(C2O[C@H](CO)[C@@H](O)[C@@H]2O)c(=O)n1 (some centres undefined) ?
0.983 (inactive)
